- tested-on: β-galactosidase
- Sequence (P00722 2-1024): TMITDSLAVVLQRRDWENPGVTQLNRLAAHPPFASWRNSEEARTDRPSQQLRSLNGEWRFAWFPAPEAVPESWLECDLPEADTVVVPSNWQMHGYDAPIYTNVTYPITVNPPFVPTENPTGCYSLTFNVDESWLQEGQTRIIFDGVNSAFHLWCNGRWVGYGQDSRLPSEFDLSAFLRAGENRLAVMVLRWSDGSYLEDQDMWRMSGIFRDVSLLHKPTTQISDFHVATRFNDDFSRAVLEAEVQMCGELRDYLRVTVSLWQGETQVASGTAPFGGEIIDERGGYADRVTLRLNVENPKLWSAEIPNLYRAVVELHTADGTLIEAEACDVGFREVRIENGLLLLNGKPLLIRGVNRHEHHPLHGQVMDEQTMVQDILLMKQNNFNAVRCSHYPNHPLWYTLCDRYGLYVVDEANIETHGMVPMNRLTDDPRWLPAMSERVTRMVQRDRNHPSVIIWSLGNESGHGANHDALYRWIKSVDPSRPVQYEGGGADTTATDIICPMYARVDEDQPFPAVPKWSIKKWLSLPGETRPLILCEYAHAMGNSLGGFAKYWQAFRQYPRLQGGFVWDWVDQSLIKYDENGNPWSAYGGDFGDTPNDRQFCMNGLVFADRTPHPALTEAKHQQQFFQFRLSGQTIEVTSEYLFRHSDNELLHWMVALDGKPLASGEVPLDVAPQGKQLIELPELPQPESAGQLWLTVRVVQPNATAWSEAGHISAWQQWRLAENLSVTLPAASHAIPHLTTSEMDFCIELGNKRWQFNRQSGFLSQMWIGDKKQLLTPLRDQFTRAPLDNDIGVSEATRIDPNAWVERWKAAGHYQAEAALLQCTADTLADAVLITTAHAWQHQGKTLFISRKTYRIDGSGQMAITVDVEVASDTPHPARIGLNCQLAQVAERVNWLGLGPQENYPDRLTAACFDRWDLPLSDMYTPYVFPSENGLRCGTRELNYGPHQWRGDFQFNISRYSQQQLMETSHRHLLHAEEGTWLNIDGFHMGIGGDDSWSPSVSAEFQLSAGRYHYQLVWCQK
- assay-procedure: phage TRF on β-galactosidase

{"binder": "KB_A12_B-gal_F07 (scFv, V domains shown) VH: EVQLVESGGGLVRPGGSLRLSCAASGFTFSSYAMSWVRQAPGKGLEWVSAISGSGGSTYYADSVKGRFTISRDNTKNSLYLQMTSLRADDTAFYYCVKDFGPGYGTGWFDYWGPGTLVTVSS VL: AVNWYQQLPGKAPKLLIYAAGRCRTTANVRRHCKQDSDCLAGCVCGPNGFCGANSGVSDRFSAAKSGTSASLAINGLRSEDEADYYCAAWDDSLNGYVFGTGTKLTVLG", "TRF signal": 246000}
{"binder": "KB_A12_B-gal_H03 (scFv, V domains shown) VH: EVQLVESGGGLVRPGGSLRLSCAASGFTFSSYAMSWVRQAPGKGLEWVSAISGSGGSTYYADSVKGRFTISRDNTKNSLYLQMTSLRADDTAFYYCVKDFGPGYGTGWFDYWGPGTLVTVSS VL: AVNWYQQLPGKAPKLLIYAAGRCNQTMSIRRPCKQDSDCLAGCVCGPNGFCGANSGVSDRFSAAKSGTSASLAINGLRSEDEADYYCAAWDDSLNGYVFGTGTKLTVLG", "TRF signal": 518000}
{"binder": "KB_A12_B-gal_E04 (scFv, V domains shown) VH: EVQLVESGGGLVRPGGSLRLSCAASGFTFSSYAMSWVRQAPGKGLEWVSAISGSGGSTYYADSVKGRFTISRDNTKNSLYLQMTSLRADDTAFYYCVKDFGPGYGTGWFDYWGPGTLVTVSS VL: AVNWYQQLPGKAPKLLIYAAGRCLATTSIRRPCKQDSDCLAGCVCGPNGFCGANSGVSDRFSAAKSGTSASLAINGLRSEDEADYYCAAWDDSLNGYVFGTGTKLTVLG", "TRF signal": 523000}
